- assay.system: T1, Recombinant Human DLL4 (human, UniProt Q9NR61 27-524)
- T1 construct: Bought recombinant human DLL4 (R&D Systems 1506-D4/CF); also called delta-like protein 4; rHuman DLL4
- experiment.description: ECL (MSD) binding assay, Fab on immobilised recombinant human DLL4; Fab concentration not given in the table
We begin with a simple list: items and their reported ECL signal.
# output: bare number, no unit

For orientation, consider the following solved cases.
Fab VH1-46_IGHD6-6*01_IGHJ1*01 S102A/S103P/S104F/H111F I51V/N52L/S54T/G56H & L6_IGKJ1*01 S28N/S30D/S31H S52L/A55S (Fab, V domains shown, Fab expressed in E. coli: VH joined to CH1 from Plasmid A (His6 and Flag tags), VL joined to kappa CL from Plasmid C; also called H:APFF VLTH & L:NDH LS) VH: QVQLVQSGAEVKKPGASVKVSCKASGYTFTSYYMHWVRQAPGQGLEWMGIVLPTGHSTSYAQKFQGRVTMTRDTSTSTVYMELSSLRSEDTAVYYCAREEYAPFSAEYFQFWGQGTLVTVSS VL: EIVLTQSPATLSLSPGERATLSCRASQNVDHYLAWYQQKPGQAPRLLIYDALNRSTGIPARFSGSGSGTDFTLTISSLEPEDFAVYYCQQRSNWPPWTFGQGTKVEIKR | 8000
Fab VH1-46_IGHD6-6*01_IGHJ1*01 S102A/S103P/S104F/H111F I51V/N52L/S54T/G56H & L6_IGKJ1*01 S28N/S30D/S31H S52L/A55G (Fab, V domains shown, Fab expressed in E. coli: VH joined to CH1 from Plasmid A (His6 and Flag tags), VL joined to kappa CL from Plasmid C; also called H:APFF VLTH & L:NDH LG) VH: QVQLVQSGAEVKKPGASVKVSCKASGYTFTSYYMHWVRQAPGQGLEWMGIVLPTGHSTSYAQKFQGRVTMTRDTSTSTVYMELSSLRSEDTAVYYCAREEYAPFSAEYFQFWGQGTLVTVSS VL: EIVLTQSPATLSLSPGERATLSCRASQNVDHYLAWYQQKPGQAPRLLIYDALNRGTGIPARFSGSGSGTDFTLTISSLEPEDFAVYYCQQRSNWPPWTFGQGTKVEIKR | 12200

Turning to the following binder.
Input line: # ECL signal lookup, item Fab VH1-46_IGHD6-6*01_IGHJ1*01 S102A/S103P/S104F/H111F N52L/S54T/G56H & L6_IGKJ1*01 S28N/S30D/S31H S52L/A55S (Fab, V domains shown, Fab expressed in E. coli: VH joined to CH1 from Plasmid A (His6 and Flag tags), VL joined to kappa CL from Plasmid C; also called H:APFF LTH & L:NDH LS) VH: QVQLVQSGAEVKKPGASVKVSCKASGYTFTSYYMHWVRQAPGQGLEWMGIILPTGHSTSYAQKFQGRVTMTRDTSTSTVYMELSSLRSEDTAVYYCAREEYAPFSAEYFQFWGQGTLVTVSS VL: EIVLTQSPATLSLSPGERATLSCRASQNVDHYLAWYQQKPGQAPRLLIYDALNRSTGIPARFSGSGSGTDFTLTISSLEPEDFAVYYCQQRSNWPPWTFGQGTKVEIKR
Output line: 11500
